- Test system: Escherichia coli TOP10;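 also: peptides expressed intracellularly from a pBAD plasmid library in pooled LB shake-flask culture, induced with 0.3% L-arabinose, DNA abundance read by NGS, three biological replicates, DESeq2 with apeglm shrinkage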
- Experiment summary: shrunken log2 fold change of peptide-encoding DNA abundance (4.5 h post-induction vs induction); higher = less antimicrobial activity (less host growth inhibition)
- Recorded conditions: time post-induction: 4.5 h; library: site-saturation at positions 5, 18, 19, 20
Property label: shrunken log2 fold change
# print the numeric value only

query: Endpoint output: shrunken log2 fold change of RRIRIRPPRLPRPRPRPCFAPRP . Value?
result: -0.1

query: Okay, and RRIRNRPPRLPRPRPRPQHSPRP ?
result: -0.428

query: Okay, and RRIRCRPPRLPRPRPRPEGIPRP ?
result: -0.106

query: Okay, and RRIRKRPPRLPRPRPRPFRKPRP ?
result: -0.304

query: Okay, and RRIRMRPPRLPRPRPRPMSSPRP ?
result: 0.0418

query: Okay, and RRIRNRPPRLPRPRPRPWNQPRP ?
result: -0.0135

query: Okay, and RRIRFRPPRLPRPRPRPPIHPRP ?
result: -0.255

query: Okay, and RRIRDRPPRLPRPRPRPGKWPRP ?
result: -0.00965

query: Okay, and RRIRWRPPRLPRPRPRPYLPPRP ?
result: -0.826

query: Okay, and RRIRDRPPRLPRPRPRPFMYPRP ?
result: -0.212

query: Okay, and RRIRVRPPRLPRPRPRPDDLPRP ?
result: -0.0407

query: Okay, and RRIRCRPPRLPRPRPRPMYMPRP ?
result: -0.143

query: Okay, and RRIRARPPRLPRPRPRPMGDPRP ?
result: -0.0121

query: Okay, and RRIRYRPPRLPRPRPRPPMVPRP ?
result: -0.35

query: Okay, and RRIRIRPPRLPRPRPRPEVDPRP ?
result: -0.0435

query: Okay, and RRIRARPPRLPRPRPRPFMYPRP ?
result: -0.225

query: Okay, and RRIRGRPPRLPRPRPRPNEHPRP ?
result: 0.435

query: Okay, and RRIRERPPRLPRPRPRPITLPRP ?
result: 0.0653

query: Okay, and RRIRMRPPRLPRPRPRPGPTPRP ?
result: 1.54

query: Okay, and RRIRDRPPRLPRPRPRPFRRPRP ?
result: 0.0456

query: Okay, and RRIRRRPPRLPRPRPRPAHSPRP ?
result: 0.384

query: Okay, and RRIRWRPPRLPRPRPRPWHNPRP ?
result: -0.203

query: Okay, and RRIRERPPRLPRPRPRPSGNPRP ?
result: -0.636

query: Okay, and RRIRHRPPRLPRPRPRPPHSPRP ?
result: 0.0314

query: Okay, and RRIRDRPPRLPRPRPRPCVYPRP ?
result: -0.0478

query: Okay, and RRIRVRPPRLPRPRPRPFFWPRP ?
result: 0.395

query: Okay, and RRIRSRPPRLPRPRPRPHQIPRP ?
result: 0.0975

query: Okay, and RRIRYRPPRLPRPRPRPRFQPRP ?
result: -0.201

query: Okay, and RRIRDRPPRLPRPRPRPTTDPRP ?
result: 0.547

query: Okay, and RRIRKRPPRLPRPRPRPVQEPRP ?
result: 0.0683

query: Okay, and RRIRDRPPRLPRPRPRPYAYPRP ?
result: 0.0345

query: Okay, and RRIRIRPPRLPRPRPRPKKSPRP ?
result: -0.202

query: Okay, and RRIRPRPPRLPRPRPRPGCLPRP ?
result: 0.339

Recorded values, source the supplement of paper PMC9112550.
